biological target: recombinant human baculovirus-expressed GST-tagged FASN (Homo sapiens, UniProt P49327); construct: GST; assay: FASN enzyme activity assay, fluorescence-based detection of CoA with CPM; format: biochemical; settings: 5 nM FASN, 150 μM NADPH, 10 μM acetyl-CoA, 25 μM malonyl-CoA, 90 minutes incubation; read-out: IC50 data for Compounds of Formulae I-V/V(a): Activity
Sequence (P49327 whole entry): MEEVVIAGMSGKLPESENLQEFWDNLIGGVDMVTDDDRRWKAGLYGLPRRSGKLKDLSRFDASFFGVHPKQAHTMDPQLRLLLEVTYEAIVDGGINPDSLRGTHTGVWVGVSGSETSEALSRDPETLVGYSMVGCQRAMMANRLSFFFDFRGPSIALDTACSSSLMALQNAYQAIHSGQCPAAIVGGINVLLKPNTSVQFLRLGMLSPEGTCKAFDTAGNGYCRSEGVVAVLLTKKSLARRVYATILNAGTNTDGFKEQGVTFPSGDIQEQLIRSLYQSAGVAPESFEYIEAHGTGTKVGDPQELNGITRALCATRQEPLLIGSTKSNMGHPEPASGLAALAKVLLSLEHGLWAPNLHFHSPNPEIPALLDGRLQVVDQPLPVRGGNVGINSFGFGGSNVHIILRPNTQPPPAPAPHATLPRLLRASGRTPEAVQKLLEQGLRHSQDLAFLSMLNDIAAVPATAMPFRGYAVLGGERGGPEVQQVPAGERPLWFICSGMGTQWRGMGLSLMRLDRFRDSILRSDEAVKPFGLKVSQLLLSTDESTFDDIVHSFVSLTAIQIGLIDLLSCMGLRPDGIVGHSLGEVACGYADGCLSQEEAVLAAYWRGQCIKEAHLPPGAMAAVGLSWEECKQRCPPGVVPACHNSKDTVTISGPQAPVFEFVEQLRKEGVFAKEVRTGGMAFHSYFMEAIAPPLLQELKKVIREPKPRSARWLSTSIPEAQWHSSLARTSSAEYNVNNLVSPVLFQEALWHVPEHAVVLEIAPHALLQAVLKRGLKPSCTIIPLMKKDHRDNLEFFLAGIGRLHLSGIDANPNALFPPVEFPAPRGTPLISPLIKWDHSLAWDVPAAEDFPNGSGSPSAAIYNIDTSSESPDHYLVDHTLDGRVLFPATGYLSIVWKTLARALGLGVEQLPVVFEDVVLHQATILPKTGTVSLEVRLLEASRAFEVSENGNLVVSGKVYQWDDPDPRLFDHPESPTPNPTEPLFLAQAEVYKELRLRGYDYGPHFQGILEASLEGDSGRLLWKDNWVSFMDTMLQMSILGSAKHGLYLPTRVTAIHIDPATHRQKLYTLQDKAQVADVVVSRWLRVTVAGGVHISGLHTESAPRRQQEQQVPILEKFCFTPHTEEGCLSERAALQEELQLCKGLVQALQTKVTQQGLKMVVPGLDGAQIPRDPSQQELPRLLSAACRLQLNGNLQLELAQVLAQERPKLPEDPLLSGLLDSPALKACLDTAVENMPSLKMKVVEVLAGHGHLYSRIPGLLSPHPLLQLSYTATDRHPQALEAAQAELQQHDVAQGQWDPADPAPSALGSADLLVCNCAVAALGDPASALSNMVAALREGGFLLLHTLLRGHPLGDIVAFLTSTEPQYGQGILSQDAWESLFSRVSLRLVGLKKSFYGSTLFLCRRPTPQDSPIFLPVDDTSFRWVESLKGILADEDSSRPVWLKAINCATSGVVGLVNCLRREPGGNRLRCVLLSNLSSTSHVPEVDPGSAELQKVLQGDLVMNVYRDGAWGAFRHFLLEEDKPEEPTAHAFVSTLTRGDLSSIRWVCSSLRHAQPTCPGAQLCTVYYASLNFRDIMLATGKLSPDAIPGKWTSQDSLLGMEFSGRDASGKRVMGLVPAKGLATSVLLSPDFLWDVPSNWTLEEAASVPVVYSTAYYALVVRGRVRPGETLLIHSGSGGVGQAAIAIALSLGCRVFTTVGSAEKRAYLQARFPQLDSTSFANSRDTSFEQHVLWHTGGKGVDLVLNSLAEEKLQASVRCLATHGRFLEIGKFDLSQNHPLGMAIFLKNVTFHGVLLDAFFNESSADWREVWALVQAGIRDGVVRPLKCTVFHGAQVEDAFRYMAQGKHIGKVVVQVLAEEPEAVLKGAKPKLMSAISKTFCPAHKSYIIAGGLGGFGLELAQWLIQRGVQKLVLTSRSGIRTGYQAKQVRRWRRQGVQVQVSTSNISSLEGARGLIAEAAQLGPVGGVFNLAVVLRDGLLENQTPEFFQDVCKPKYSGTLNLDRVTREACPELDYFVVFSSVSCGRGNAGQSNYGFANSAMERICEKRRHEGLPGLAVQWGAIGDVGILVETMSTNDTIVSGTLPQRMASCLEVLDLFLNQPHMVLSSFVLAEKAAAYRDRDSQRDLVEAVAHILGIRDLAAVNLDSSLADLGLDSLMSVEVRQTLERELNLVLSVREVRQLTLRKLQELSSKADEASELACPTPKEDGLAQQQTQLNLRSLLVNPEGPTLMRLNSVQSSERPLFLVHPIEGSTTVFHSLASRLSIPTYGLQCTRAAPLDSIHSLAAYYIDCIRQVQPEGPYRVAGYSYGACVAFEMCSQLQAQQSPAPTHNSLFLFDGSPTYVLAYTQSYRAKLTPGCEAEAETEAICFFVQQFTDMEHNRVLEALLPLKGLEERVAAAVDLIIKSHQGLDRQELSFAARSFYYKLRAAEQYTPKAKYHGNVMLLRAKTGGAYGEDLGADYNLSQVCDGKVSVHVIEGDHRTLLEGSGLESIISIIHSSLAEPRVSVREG
pIC50: −log10 of the molar value. Counter-ions that a name gives are not always drawn.
READOUT: pIC50

Before answering, review these 3 worked examples.
CN(c1ccc(-c2cnc3ccccc3c2)cc1)C1CCN(C(=O)C2CC2)CC1 [Example 525, HCl]; 6.00 to 7.00
CCC(=O)N1CCC(Oc2ccc(-c3cc4ccccc4nc3Cl)cc2)CC1; 5.00 to 6.00
Nc1c(-c2ccc(OC3CCN(C(=O)[C@H]4CCCO4)CC3)cc2)cnc2ccccc12; 6.00 to 7.00

q: May I ask what pIC50 has been recorded for `CCC(=O)N1CCC(Oc2ccc(-c3ccc(C#N)cc3)cc2)CC1` ?
a: 5.00 to 6.00

* * *

target: recombinant human baculovirus-expressed GST-tagged FASN (Homo sapiens, UniProt P49327); construct: GST; test: FASN enzyme activity assay, fluorescence-based detection of CoA with CPM; format: biochemical; conditions: 5 nM FASN, 150 μM NADPH, 10 μM acetyl-CoA, 25 μM malonyl-CoA, 90 minutes incubation; read-out: IC50 data for Compounds of Formulae I-V/V(a): Activity
pIC50: −log10 of the molar value. Counter-ions that a name gives are not always drawn.
READOUT: pIC50

N#CCC(=O)N1CCC(Oc2ccc(-c3cnc4ccccc4c3)cc2)CC1; 5.00 to 6.00
CCC(=O)N1CCC(Oc2ccc(-c3ccc4c(Cl)nccc4c3)cc2)CC1; 6.00 to 7.00
O=C(N1CCC(Oc2ccc(-c3ccn4cnnc4c3)cc2)CC1)C1(O)CC1; 5.00 to 6.00

q: Quick one: pIC50 of `CS(=O)(=O)N1CCC(Oc2ccc(-c3cnc4ccccc4c3)cc2)CC1` ?
a: 5.00 to 6.00

q: Please look up its pIC50: CCC(=O)N1CCC(Oc2ccc(-c3ccc4cccnc4c3OCCOC)cc2)CC1 [Example 178, HCl]
a: 6.00 to 7.00

q: State the recorded pIC50 for this entry: O=C(c1cccc(-c2ncc[nH]2)c1)N1CCC(Oc2ccc(-c3cnc4ccccc4c3)cc2)CC1 [Example 129, HCl]
a: 5.00 to 6.00

q: Reported pIC50 for O=C([C@H]1CCCO1)N1CCC(Oc2ccc(-c3cnc4sccc4c3)cc2)CC1 [Example 254, TFA salt] : what is it?
a: 7.00 to 9.00

q: Quick one: pIC50 of `CC(C)C(=O)N1CCC(Oc2ccc(-c3ccc4occc4c3)cc2)CC1` ?
a: 5.00 to 6.00

q: Please give the measured pIC50 for this compound: `CCC(=O)N1CCC(Oc2ccc(-c3ccc4cccnc4c3NCCOC)cc2)CC1`
a: 6.00 to 7.00

q: Entry `CCC(=O)N1CCC(Oc2ccc(-c3ccc4cc(C#N)cnc4c3)cc2)CC1` has what pIC50?
a: 6.00 to 7.00

q: Looking for the measured pIC50 of `O=C(C1CCC1)N1CCC(Oc2ccc(-c3cc(O)c4ccnn4c3)cc2)CC1` , can you help?
a: 5.00 to 6.00

q: GET /values?readout=pIC50&item= `Nc1cc2cc(-c3ccc(OC4CCN(C(=O)C5CC5)CC4)cc3)ccc2cn1`
a: 6.00 to 7.00

q: Query: pIC50; subject: O=C(C1CC1)N1CCC(Oc2ccc(-c3ccc(Nc4ccccc4)nc3)cc2)CC1 [Example 393, TFA salt]
a: 5.00 to 6.00

q: Given `O=C(C1CC1)N1CCC(Oc2ccc(-c3ccc4cccnc4c3)nc2)CC1` , state its recorded pIC50.
a: 5.00 to 6.00

q: Query: pIC50; subject: CCC(=O)N1CCC(N(C)c2ccc(-c3cnc4ccccc4c3)cc2)CC1 [Example 524, HCl]
a: 6.00 to 7.00

q: Name the recorded pIC50 for O=CN1CCC(Oc2ccc(-c3cnc4ccccc4c3)cc2)CC1 [Example 153, HCl] .
a: 5.00 to 6.00

q: Please give the measured pIC50 for this compound: `Nc1cc2cc(-c3ccc(OC4CCN(C(=O)[C@H]5CCCO5)CC4)cc3)ccc2cn1`
a: 7.00 to 9.00
